Ki for Peptidyl-prolyl cis-trans isomerase FKBP1A (Homo sapiens, UniProt P62942), merged from several publications.

Solved entries:
INSERT INTO assay_data (compound, observed) VALUES
  ('CCC(C)(C)C(=O)C(=O)N1CCCCC1C(=O)OCCC(c1ccccc1)c1ccccc1 (stereo not given)', '8.3 nM'),
  ('O=C(OCCCc1ccc(Cl)cc1)[C@@H]1CCCN1C(=S)NC12C[C@H]3C[C@@H](C1)C[C@@H](C2)C3', '1500 nM'),
  ('O=C(NCc1ccccc1)C1CCCN1C(=O)NC1CCCCC1 (stereo not given)', '> 50000 nM'),
  ('O=C(OCCCc1ccc(Br)cc1)[C@@H]1CCCN1C(=O)NC12C[C@H]3C[C@@H](C1)C[C@@H](C2)C3', '3100 nM');

Continue with the next compound.
Give Ki for CC(C)(C)C(=O)C(=O)N1CCCC1C(=O)OCCCc1cccnc1 (stereo not given) 3 nM

---

Ki for Peptidyl-prolyl cis-trans isomerase FKBP1A (Homo sapiens), merged from several publications.
Response field class: enum, chosen by comparing Ki against bottom (below 100 nM), middle (100 nM to below 3000 nM), top (3000 nM or more)

Consider the worked cases shown below.
INSERT INTO assay_data (compound, classlabel) VALUES
  ('C/C=C/C[C@@H](C)[C@@H](O)[C@H]1C(=O)N[C@@H](CC)C(=O)N(C)CC(=O)N(C)[C@@H](CC(C)C)C(=O)N[C@@H](C(C)C)C(=O)N(C)[C@@H](C)C(=O)N[C@@H](C)C(=O)N[C@H](C)C(=O)N(C)[C@@H](CC(C)C)C(=O)N(C)[C@@H](CC(C)C)C(=O)N(C)[C@@H](C(C)C)C(=O)N1C', 'bottom'),
  ('COc1ccc2c(c1)CCN1C(=O)C3CCCC(C21)N3C(=O)C(=O)c1cc(OC)c(OC)c(OC)c1 (configuration not stated)', 'middle'),
  ('COc1cc2c(c(OC)c1)C1C3CCCC(C(=O)N1CC2)N3C(=O)C(=O)c1ccc(Cl)cc1 (configuration not stated)', 'bottom'),
  ('COc1cc2c(c(OC)c1)C1C3CCCC(C(=O)N1CC2)N3C(=O)C(=O)c1ccco1 (configuration not stated)', 'middle'),
  ('CO[C@@H]1C[C@@H]2CC[C@@H](C)[C@@](O)(O2)C(=O)C(=O)N2CCCC[C@H]2C(=O)OC([C@H](C)C[C@@H]2CC[C@@H](O)[C@H](O)C2)C/C=C(\C)[C@@H](O)CC(=O)[C@H](C)C[C@H](C)/C=C/C=C/C=C/1C (some centres not stated)', 'bottom');

// return the class label for COc1cc2c(c(OC)c1)C1C3CCCC(C(=O)N1CC2)N3C(=O)C(=O)c1cccc(Cl)c1 (configuration not stated) bottom

// return the class label for CCC(C)(C)C(=O)C(=O)N1CCC[C@H]1C(=O)OCCC/N=C(S)/N=C1\C=CC(=C2c3ccc(O)cc3Oc3cc(O)ccc32)C(C(=O)O)=C1 middle

// return the class label for COc1cc([C@@H](C(=O)N2CCCC[C@H]2C(=O)NCCCCC(N)=O)C2CCCCC2)cc(OC)c1OC top

// return the class label for O=C(NCCc1ccccc1)C1CCCCN1S(=O)(=O)Cc1ccccc1 (configuration not stated) top

// return the class label for O=C(OCCCc1ccc(Br)cc1)C1CCCCN1S(=O)(=O)Cc1ccccc1 (configuration not stated) middle

// return the class label for CC(C)(C)C(=O)C(=O)N1CCCCC1C(=O)OCCCC1CCCCC1 (configuration not stated) bottom

---

Ki for UniProt:P62942, merged from several publications.
Exam item: assign Y to entries whose Ki is below 0.7 µM and N to entries at or above 0.7 µM. Note that a value of exactly 0.7 µM receives N.

INSERT INTO assay_data (molecule, classlabel) VALUES
  ('O=C(NCCc1ccccc1)C1CCCCN1S(=O)(=O)c1ccccc1 (stereo not drawn)', 'N');

# TODO verify Ki < 0.7 µM strictly for this molecule: COc1cc2c(c(OC)c1)C1C3CCCC(C(=O)N1CC2)N3C(=O)C(=O)c1ccc(Cl)c(Cl)c1 (stereo not drawn) Y

# TODO verify Ki < 0.7 µM strictly for this molecule: O=C(OCCCc1cccnc1)C1CCCN1C(=S)NC1C2CC3CC(C2)CC1C3 (stereo not drawn) Y

# TODO verify Ki < 0.7 µM strictly for this molecule: COC(C=C(C)C)[C@@H]1CC[C@@H](C)[C@](O)(C(=O)C(=O)N2CCCC[C@H]2C(=O)OCc2ccccc2)C1 (stereo partly drawn) Y

# TODO verify Ki < 0.7 µM strictly for this molecule: COc1ccc2c(c1)CCN1C(=O)C3CCCC(C21)N3S(=O)(=O)Nc1cc(F)c(F)c(F)c1 (stereo not drawn) Y

# TODO verify Ki < 0.7 µM strictly for this molecule: CCC(C)(C)C(=O)C(=O)N1C2CCC[C@H]1C(=O)N1CCc3cc(OC)cc(OC)c3[C@]21C N

# TODO verify Ki < 0.7 µM strictly for this molecule: O=C(OCc1ccccc1)[C@@H]1CCCN1C(=O)Nc1ccccc1 N

---

Ki for Peptidyl-prolyl cis-trans isomerase FKBP1A (Homo sapiens, UniProt P62942), merged from several publications.
# unit: nM | format: bare number

Solved entries:
INSERT INTO assay_data (molecule, measuredproperty, observed) VALUES
  ('COc1cc2c(c(OC)c1)C1C3CCCC(C(=O)N1CC2)N3S(=O)(=O)c1ccc(C)cc1 (stereo not drawn)', 'Ki', 84),
  ('COc1cc(CCCOC(=O)C2CCCCN2S(=O)(=O)c2ccc(C)cc2)cc(OC)c1 (stereo not drawn)', 'Ki', 400),
  ('COc1cc([C@@H](C(=O)N2CCCC[C@H]2C(=O)N[C@H](Cc2cnc[nH]2)C(N)=O)C2CCCCC2)cc(OC)c1OC', 'Ki', 26900);

GET Ki where system = Peptidyl-prolyl cis-trans isomerase FKBP1A (Homo sapiens, UniProt P62942) and item = O=C(NCCCCc1ccccc1)[C@@H]1CCCCN1C(=O)NCc1ccccc1 1600

GET Ki where system = Peptidyl-prolyl cis-trans isomerase FKBP1A (Homo sapiens, UniProt P62942) and item = O=C(OCCCc1ccc(F)cc1)C1CCCCN1S(=O)(=O)c1ccccc1 (stereo not drawn) 740

GET Ki where system = Peptidyl-prolyl cis-trans isomerase FKBP1A (Homo sapiens, UniProt P62942) and item = CCC(OC(=O)C1CCCCN1C(=O)C(=O)C(C)(C)CC)C(CCc1ccccc1)c1ccc(OC)cc1 (stereo not drawn) 15

GET Ki where system = Peptidyl-prolyl cis-trans isomerase FKBP1A (Homo sapiens, UniProt P62942) and item = COc1ccc(CC[C@@H](OC(=O)[C@@H]2CCCCN2C(=O)[C@H](c2cc(OC)c(OC)c(OC)c2)C2CCCCC2)c2cccc(OCC(=O)O)c2)cc1OC 90

GET Ki where system = Peptidyl-prolyl cis-trans isomerase FKBP1A (Homo sapiens, UniProt P62942) and item = COc1cc2c(c(OC)c1)C1C3CCCC(CN1CC2)N3C(=O)C(=O)c1cc(OC)c(OC)c(OC)c1 (stereo not drawn) 31700

GET Ki where system = Peptidyl-prolyl cis-trans isomerase FKBP1A (Homo sapiens, UniProt P62942) and item = O=C(C(=O)N1CCCCC1C(=O)OCCCC1CCCCC1)C1CCCCC1 (stereo not drawn) 760

GET Ki where system = Peptidyl-prolyl cis-trans isomerase FKBP1A (Homo sapiens, UniProt P62942) and item = COc1cc([C@@H](C(=O)N2CCCC[C@H]2C(=O)N[C@@H](Cc2ccccc2)C(N)=O)C2CCCCC2)cc(OC)c1OC 10900

---

Ki for Peptidyl-prolyl cis-trans isomerase FKBP1A (Homo sapiens, UniProt P62942), merged from several publications.
Exam item: assign Fulfilled to entries whose Ki is below 0.2 µM and Not fulfilled to entries at or above 0.2 µM. Note that a value of exactly 0.2 µM receives Not fulfilled.

INSERT INTO measurements (molecule, assayedtarget, classlabel) VALUES
  ('COc1ccc(CCCOC(=O)C2CCCCN2S(=O)(=O)Cc2ccccc2)cc1OC (centres undefined)', 'Peptidyl-prolyl cis-trans isomerase FKBP1A (Homo sapiens, UniProt P62942)', 'Fulfilled');

# TODO verify Ki < 0.2 µM strictly for this molecule: O=C(OCCCc1ccc(Br)cc1)C1CCCCN1S(=O)(=O)c1ccccc1 (centres undefined) Not fulfilled

# TODO verify Ki < 0.2 µM strictly for this molecule: CCCCNC(=O)C1CCCCN1S(=O)(=O)c1ccccc1 (centres undefined) Not fulfilled

# TODO verify Ki < 0.2 µM strictly for this molecule: COc1ccc2c(c1)CCN1C(=O)C3CCCC(C21)N3S(=O)(=O)N1C[C@@H](C)O[C@@H](C)C1 (some centres undefined) Fulfilled

# TODO verify Ki < 0.2 µM strictly for this molecule: COc1cc([C@@H](C(=O)N2CCCC[C@H]2C(=O)NCCCC(N)=O)C2CCCCC2)cc(OC)c1OC Not fulfilled

# TODO verify Ki < 0.2 µM strictly for this molecule: O=C(OCCCc1ccc(F)cc1)C1CCCCN1S(=O)(=O)Cc1ccccc1 (centres undefined) Not fulfilled

# TODO verify Ki < 0.2 µM strictly for this molecule: O=C(C(=O)N1CCCCC1C(=O)OC(CCCc1ccccc1)CCCc1ccccc1)c1ccccc1 (centres undefined) Fulfilled

# TODO verify Ki < 0.2 µM strictly for this molecule: CCc1ccc(C(=O)C(=O)N2C3CCCC2C2c4c(cc(OC)cc4OC)CCN2C3=O)cc1 (centres undefined) Fulfilled

# TODO verify Ki < 0.2 µM strictly for this molecule: O=C(OCc1ccccc1)[C@@H]1CCCN1C(=S)NC12C[C@H]3C[C@@H](C1)C[C@@H](C2)C3 Not fulfilled
